Examples of binders with documented EC50 (nM) GLP-1R follow.
Biological target: human GLP-1R (glucagon-like peptide-1 receptor) (human, UniProt P43220 24-463)
Assay: cell-based or functional assay
*1 amine or outer side, *2 acyl side, *3 side chain or, on linkers, in order; H or OH if unused. Where no end group is shown, it is not given here. Side-chain parts run from the residue outwards. [ ]: non-standard residue; d: D form. The star is where a group is joined. C18 diacid = O=C(O)CCCCCCCCCCCCCCCCC(=O)*; γGlu = O=C(O)[C@H](CCC(=O)[*:2])N[*:1]; Decanoyl = CCCCCCCCCC(=O)*; AEEA = NCCOCCOCC(=O)O; Aib = CC(C)(N)C(=O)O
Property: EC50 (nM) GLP-1R

{"Binder": "H[Aib]DGTFISDYSIILDNLAARDFINWLIQTKITK(Decanoyl)-NH2 [Compound 10]", "Property": "EC50 (nM) GLP-1R", "Result Value": 3.98}
{"Binder": "HADGTFTSDYSTILDKLAARDFINWLIQTKGKKNDWK([AEEA-AEEA-γGlu-C18 diacid])HNITQ-OH [Compound 25]", "Property": "EC50 (nM) GLP-1R", "Result Value": 0.05}
{"Binder": "HADGTFTSDYSTILDKK([AEEA-AEEA-γGlu-C18 diacid])AARDFINWLIQTKGKKNDWKHNITQ-OH [Compound 23]", "Property": "EC50 (nM) GLP-1R", "Result Value": 0.05}

Ref: patent US20250304644A1
